EXPERIMENTAL TARGET: T1, RSV F A, A2 Ref (RSV A, strain A2, UniProt P03420 26-574)
T1 construct: whole, on cells
ASSAY NAME: FACS, % binding to RSV F A variants
RECORDED METRIC: % binding (%)
Respond with the bare value in %.

Illustrative cases are given below, each with its answer.
BINDER	REPORTED RESULT
MPK201-v4.1 (antibody, V domains shown) VH: QVQLVQSGAEVKKPGESLKISCQGSGYSFISYWIGWVRQKPGKGLEWMGIIYPFDSETKYSPSFQGHVTFSADKSINTAYVQWSSLRASDTAMYYCARFTFGLAVTTADVSGEGQAFEIWGQGTMVTVSS VL: EIVMMQSPATLSVSPGERATLSCRASQSVAGNLAWYQQRPGQAPRLLVYGASTRASGVPARFSGSGSETEFTLTISSLQSEDFAVYYCHHYSDWPQAFGQGTRLDIK	54.1
MPK176-v1.3 (antibody, V domains shown) VH: QVQLVQSGAEVKKPGASVRVSCKASGYTLTAYGISWVRQAPGQGLEWMGWISPKHGNTHYAQRFQGRVTMTTDTSTSTAYMELRSLRPDDTAVYFCAREGVDIMAVPWYFDYWGQGTLVAVSS VL: SYVLTQPPSVSVAPGQTARISCGGNNIGSKSVHWYQQKPGQAPVVVVYDDSKRPSGIPERFSGSNSGNTATLTISGVEAGDEADYFCQVWDSATDHWVFGGGTKLTVL	78.1
MPK201-v1.2 (antibody, V domains shown) VH: EVQLVQSGAEVKKPGESLKISCQGSGYSFINYWIGWVRQKPGKGLEWMGIIYPFDSETKYSPSFQGHVTFSADKSINTAYVQWSSLRASDTAMYYCARFTFGLAVTTADVSGEGQAFEIWGQGTMVTVSS VL: QIVMMQSPATLSVSPGERATLSCRASQSVAGNLAWYQQRPGQAPRLLVYGASTRASGVPARFSGSGSETEFTLTISSLQSEDFAVYYCHHYSDLPQAFGQGTRLDIK	66.9

Which % binding value is on record for MPK65-v2-v1.2 (antibody, V domains shown) VH: QVPLVQSGAEVKKPGESLKISCKGSGYSFINYWIGWVRQMPGKGLEWMGVIYPFDSDTKYSPSFQGHVTISADKSSNTAYVQWSSLKASDTAMYYCARFTFGIAVVTDDVSGEGQAFEIWGQGTMVTVSS VL: QIVMMQSPATLSVSPGERATLSCRASQSVAGNLAWYQQRPGQAPRLLIYGASTRATGVPARFSGSGSETEFTLTISSLQSEDFAVYYCHQYSNLPQAFGQGTRLDIK ?
56
